tested on: Inhibin beta A chain (activin A); assay: INHBA (activin A) binders on microarrays, primary screen, biochemical, small-molecule microarray, 635 nm fluorescence scan (AID 1107); conditions: small-molecule microarray binding, higher = more signal;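 also: mouse activin A protein probed at 4.33 µg/mL on printed slides; score merges bound-protein fluorescence near 667 nm with spot signal-to-noise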
For each entry below, report its composite z-score value.

Q) Which composite z-score is listed for COc1ccc(/C=C/C=O)cc1 ?
A) 0.664

Q) Which composite z-score is listed for C=C(CCCC)/C(=C/C[C@@H](OC(=O)c1ccncc1)c1ccc(OCCO)cc1)c1cc(C(=O)OC)ccc1OC ?
A) 0.218

Q) Which composite z-score is listed for C=C(COC)/C(=C/C[C@H](OC(C)=O)c1ccc(CO)o1)c1cc(C(=O)OC)ccc1OC ?
A) 1.32

Q) Which composite z-score is listed for COc1cc2c(cc1OC)CN(C(=O)[C@@H]1[C@H]3C(=O)O[C@H](c4ccccc4)[C@H](c4ccccc4)N3[C@H](c3ccc(O)cc3)[C@@]13C(=O)Nc1ccccc13)CC2 ?
A) -0.131

Q) Which composite z-score is listed for NC(=O)NCC#Cc1ccc2c(c1)[C@]1(C(=O)N2)[C@H](C(N)=O)[C@H]2C(=O)O[C@H](c3ccccc3)[C@H](c3ccccc3)N2[C@@H]1c1ccc(O)cc1 ?
A) 0.778

Q) Which composite z-score is listed for CC1(C)[C@@H]2CC(C(O)C3C=CC4C(=O)N(Cc5ccccc5)C(=O)C4N3n3cnnc3)=C[C@H]1C2 (stereo partly specified) ?
A) 1.2
